I'd be grateful if you could share measured %Inh for these entries.
# Tested on: p38-alpha;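 further: KINOMEscan kinase panel screen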
# Construct: gene MAPK14
# Assay Conditions: concentration: 1 μM, replicates: in singlicate; n = 1
Give bare numbers, in %.

Given Smiles | Study System | Measurement Label | Units | Reported
CC(C)(C)c1ccc(C(=O)Nc2cn3cc(-n4ccnc4)ccc3n2)cc1 | p38-alpha | %Inh | % | 11

Please state, for each entry, its recorded %Inh.
1. CN(C)CCOc1ccc(-c2cc(-c3ccc(Cl)c(O)c3)c(-c3ccncc3)[nH]2)cc1.Cl.Cl
2. COC(=O)Nc1nc2ccc(Oc3ccc(CC(=O)Nc4cc(C(F)(F)F)ccc4F)cc3)cc2[nH]1

54
6

Please state, for each entry, its recorded %Inh.
1. COc1ccc(C)c(Nc2ccnc(Nc3ccc(-c4cnc[nH]4)cc3)n2)c1.Cl
2. COc1ccc(C2=C(Nc3cccc(O)c3)C(=O)NC2=O)cc1

1: 0; 2: 23
